Source listed as ChEMBL document CHEMBL1157461.

- Measurement Notes: Selectivity index, ratio of CC50 for Vero cells to EC50 for Measles virus Leningrad 16
- Type: toxicity, cell-based
- Condition: monkey, read-out: Ratio CC50/EC50
Measured Metric: selectivity ratio
# answer = number (no unit)

Data point: `NC(=O)c1ncn([C@@H]2O[C@H](CO)[C@@H](O)[C@H]2O)n1` ; selectivity ratio = 14.4

###

- Measurement Notes: Cytotoxicity against african green monkey Vero cells by MTT assay
- Assay type: cell-based
- Condition: chlorocebus sabaeus
Measured Metric: CC50

Data point: CC1CCCCN1S(=O)(=O)c1ccccc1NC(=O)c1cc(C(F)(F)F)nn1C (centres undefined) ; CC50 = > 300 µM
